variants and their reported protein stability index
B1: ZBTB22 (parent)
chain: HTGLKPYECGVCAKKFMWRDSFMR

Variants of: B1
Assay: protein stability index of a GFP-peptide fusion (GPS, HEK-293T) (PSI 1-6); higher = more stable;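 note: lentivirally expressed fusions sorted by FACS into six bins by GFP to DsRed ratio, PSI derived from sequencing read proportions per bin multiplied by bin number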
Conditions: c terminus: a fixed tail appended
Give a plain numeric answer without units written out.

The following variants have reported results that may help.
# input Given "T2N" , state its recorded protein stability index.
# output 2.28

# input Another variant to look at: "C9K"
# output 2.22

# input Then what about the variant "F22A" ?
# output 1.79

# input Entry to check: "P6K"
# output 3.36

# input Another variant to check: "M17I"
# output 2.8

---
# input Reported protein stability index, variant "E8F" : ____
# output 2.2

# input Lookup "S21W"
# output 2.84

# input Entry to check: "Y7Q"
# output 1.77

# input Another: "F16K"
# output 1.32

# input And then "G10P" , what is it?
# output 1.92
